Assay remarks: Selectivity index, ratio of IC50 for HEK293 cells to IC50 for human Hep2 cells
Type: toxicity
Stated conditions: HEK293 cells versus Hep2 cells, read-out: Ratio IC50

Chemical structure	selectivity ratio
C=C(C=O)[C@@H]1CC[C@]2(C(=O)OC)CC[C@]3(C)[C@H](CC[C@@H]4[C@@](C)(CC#N)[C@H](C(C)(C)C(=O)CBr)CC[C@]43C)[C@@H]12	17.4

---

Assay remarks: Selectivity index, ratio of IC50 for HEK293 cells to IC50 for human MS cells
Assay type: toxicity
Stated conditions: HEK293 cells versus MS cells, read-out: Ratio IC50

Chemical structure	selectivity ratio
C=C(C=O)[C@@H]1CC[C@]2(C(=O)OC)CC[C@]3(C)[C@H](CC[C@@H]4[C@@](C)(CC#N)[C@H](C(C)(C)C(=O)CBr)CC[C@]43C)[C@@H]12	27.2

Just for reference, ChEMBL document CHEMBL4190348 is where these values come from.
